Hey, just so you know, these numbers are from patent US20130177981A1.

Target: gp41 of HIV-1 strain DJ258 (HIV-1 strain DJ258)
Test: cell-based or functional assay
Where no end group is shown, it is not given here. [ ]: non-standard residue; d: D form. APC = trans-3-aminopyrrolidine-4-carboxylic acid; ACPC = trans-2-aminocyclopentanecarboxylic acid; β3hR = N=C(N)NCCC[C@H](N)CC(=O)O; β3hT = C[C@@H](O)[C@H](N)CC(=O)O; β3hE = N[C@@H](CCC(=O)O)CC(=O)O; β3hA = C[C@H](N)CC(=O)O
experimental-readout: Inhibition of HIV-1 infectivity, IC50 (nM), DJ258

binder="Ac-TTWEAWDRAIAEYAARIEALIRAAQEQQEKNEAALREL (also called T-2635; CHR α-peptide 3) [α-peptide 3]" measured_number=58
binder="Ac-[β3hT]TWE[β3hA]WD[β3hR]AIA[β3hE]YA[β3hA]RIE[β3hA]LI[β3hR]AAQ[β3hE]QQ[β3hE]KNE[β3hA]AL[β3hR]EL (also called oligomer 4) [α/β-peptide 4]" measured_number=960
binder="Ac-[β3hT]TWE[ACPC]WD[APC]AIA[β3hE]YA[ACPC]RIE[ACPC]LI[APC]AAQ[β3hE]QQ[β3hE]KNE[ACPC]AL[APC]EL-NH2 (Made from 9 by replacing the three β3-hArg residues with APC; also called foldamer 10) [α/β-peptide 10]" measured_number=110
binder="Ac-TTWEAWDRAIAEYAARIEALI[β3hR]AAQ[β3hE]QQ[β3hE]KNE[β3hA]AL[β3hR]EL (Chimera of α-peptide 3 and α/β-peptide 4; also called oligomer 5) [(α+α/β)-peptide 5]" measured_number=280
